assay: amyloid nucleation score (Sup35N fusion, yeast selection) (log enrichment); library NNK2; higher = more nucleation; inactive = no reads after selection;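 further: zero at mode of non-aggregating sequences after 7 days selection at 30°C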

residueString: YAGYNISCP
amyloid nucleation score: inactive
//
residueString: FYFGYLTFISENHVGIQEQG
amyloid nucleation score: inactive
//
residueString: RKPMLFLRYF
amyloid nucleation score: inactive
//
residueString: RWGMRYIMDWY
amyloid nucleation score: 0.007

====

assay: amyloid nucleation score (Sup35N fusion, yeast selection) (log enrichment); library NNK2; higher = more nucleation; inactive = no reads after selection
Binned amyloid nucleation score; ranges: lower band (below 0.3), central band (0.3 to below 1), upper band (1 or more)

residueString: DDVYNSGYKELIRSQ
labelValue: central band
//
residueString: GTVLAIRQLVSRCSGGVVGG
labelValue: upper band
//
residueString: FILQQAYGDWFTVDSNSCIM
labelValue: lower band
//
residueString: EDKNLVWLLCQGEM
labelValue: upper band
//
residueString: NFGIKWIVFLKL
labelValue: lower band
//
residueString: CHLHIYGTRIERAYHRDFFL
labelValue: upper band
//
residueString: SSWSSNQNSTYTLRSYTALH
labelValue: upper band
//
residueString: QEYLLLVAAGKHVNVDKTYL
labelValue: central band
//
residueString: GVAMNNCGIMDSREHGFGIR
labelValue: central band
//
residueString: YEIRWFRGLIK
labelValue: central band
//
residueString: RGQMRLQRRLPKLRTSGKLQ
labelValue: upper band
//
residueString: QIELGALNNRCGNRDGSGDW
labelValue: lower band
//
residueString: GSLLDVTHRRKVLSKSMRGL
labelValue: lower band
//
residueString: WFRKGHHVVT
labelValue: upper band
//
residueString: SVDGMLSVSVLVNDVVKTPL
labelValue: central band
//
residueString: RQRVMHAHHCLLYLMVKHFI
labelValue: lower band
//
residueString: HNRYYGVIYVSLKICKLAFR
labelValue: upper band
//
residueString: TNTSFQRCGLWLTMGYGRYH
labelValue: lower band
//
residueString: HVVTCMRILFPSDKGSCFVK
labelValue: lower band
//
residueString: LLRSLNLVG
labelValue: lower band
//
residueString: WLLGMYVIRGRQSYNSKDVR
labelValue: upper band
//
residueString: CRRHVMFYTCMLE
labelValue: upper band

====

assay: amyloid nucleation score (Sup35N fusion, yeast selection) (log enrichment); library NNK3; higher = more nucleation; inactive = no reads after selection
endpointName: amyloid nucleation score

substance: TCECCLMMVEFRALCHRWEL
endpointName: amyloid nucleation score
resultValue: inactive

substance: SYGLTHMSKAIGDHRVVIAT
endpointName: amyloid nucleation score
resultValue: inactive

substance: FLDVALLKSMNCSASREVGV
endpointName: amyloid nucleation score
resultValue: inactive

substance: DCHLPKIKYFAITYFCFFRR
endpointName: amyloid nucleation score
resultValue: inactive

substance: YFVLFVRQCVKLVMRFGSED
endpointName: amyloid nucleation score
resultValue: inactive

substance: SFPASFSYRNGFVWLNFWVV
endpointName: amyloid nucleation score
resultValue: inactive

substance: VWCRQITMMACMSVR
endpointName: amyloid nucleation score
resultValue: inactive

substance: STRAVQIRKSRGFAGYPGN
endpointName: amyloid nucleation score
resultValue: inactive

substance: LNNSEWSLS
endpointName: amyloid nucleation score
resultValue: inactive

substance: HVNSMA
endpointName: amyloid nucleation score
resultValue: inactive

substance: KYFRNLTVRKTKWE
endpointName: amyloid nucleation score
resultValue: inactive

substance: VLDAIVATDRL
endpointName: amyloid nucleation score
resultValue: inactive

substance: DFHIKERG
endpointName: amyloid nucleation score
resultValue: inactive

substance: LNADVTMLKSNGVMTIT
endpointName: amyloid nucleation score
resultValue: inactive

substance: VSLLSVCGCDRRVFEVWHYG
endpointName: amyloid nucleation score
resultValue: 0.446

substance: VNTLPQLLSLYSDLLRGESL
endpointName: amyloid nucleation score
resultValue: -0.218

substance: GRSFCVAMVVIEGVLYRDLS
endpointName: amyloid nucleation score
resultValue: 0.441

substance: RCNLGTAAHFCKY
endpointName: amyloid nucleation score
resultValue: inactive

substance: FYNFWWCI
endpointName: amyloid nucleation score
resultValue: 1.87

substance: CYVNYWESDMLRTAVPNCTF
endpointName: amyloid nucleation score
resultValue: inactive

substance: QVILKNMGPNIVSYGLG
endpointName: amyloid nucleation score
resultValue: inactive

substance: PLESSWSK
endpointName: amyloid nucleation score
resultValue: inactive

substance: FGFYSCTLGG
endpointName: amyloid nucleation score
resultValue: inactive

substance: VRYPRSLVCYWYGRNHAVWA
endpointName: amyloid nucleation score
resultValue: inactive

substance: THVSSGYRYEEILWWHSRGW
endpointName: amyloid nucleation score
resultValue: inactive

substance: ECYIVWFLRLCSSGVYVYLR
endpointName: amyloid nucleation score
resultValue: inactive

substance: IGLSAKIRFWVMWRMRHTR
endpointName: amyloid nucleation score
resultValue: inactive

substance: ANWIVGC
endpointName: amyloid nucleation score
resultValue: inactive

substance: MSGSRWRSTNFTCNNLWFDR
endpointName: amyloid nucleation score
resultValue: -1.07

substance: HCVTLWLKSYL
endpointName: amyloid nucleation score
resultValue: inactive

substance: LSDCRSWVPCGRHCSF
endpointName: amyloid nucleation score
resultValue: inactive

substance: AIVFGGNAQKSHTHDTGAMG
endpointName: amyloid nucleation score
resultValue: inactive

substance: GYTVAKVNFNGWNRL
endpointName: amyloid nucleation score
resultValue: 0.453

substance: VQWCPNVYTDSQVCRYVSSR
endpointName: amyloid nucleation score
resultValue: inactive

substance: TVSLRCWARLSNTDFIRFNS
endpointName: amyloid nucleation score
resultValue: inactive

substance: RNNSNEKSFLRQSYYHCDCF
endpointName: amyloid nucleation score
resultValue: 2.73

substance: WCFYKSRLFVVQVVVLYNRF
endpointName: amyloid nucleation score
resultValue: inactive

substance: RYLLIPAVGLK
endpointName: amyloid nucleation score
resultValue: inactive

substance: GLSKKKECGFLLARIVVVVV
endpointName: amyloid nucleation score
resultValue: inactive

substance: FRVAAMAISGTISCQYFQGL
endpointName: amyloid nucleation score
resultValue: 0.739

substance: PTSFLVYRMKRWFRASMSSR
endpointName: amyloid nucleation score
resultValue: inactive

substance: TKWRLTP
endpointName: amyloid nucleation score
resultValue: inactive

substance: PLPLCKVM
endpointName: amyloid nucleation score
resultValue: -0.039

substance: NLNFDWTPVPSFSYHAPSKF
endpointName: amyloid nucleation score
resultValue: inactive

substance: CCCRIEYHGVHGATSHSQTV
endpointName: amyloid nucleation score
resultValue: inactive

substance: DDSNCKRKDRVVSVRMMDLT
endpointName: amyloid nucleation score
resultValue: inactive

substance: MNEGQSYYKVVITPELLAAR
endpointName: amyloid nucleation score
resultValue: -0.545

substance: SLDKLAFRD
endpointName: amyloid nucleation score
resultValue: inactive

substance: NCRYIVAPMKQLYMGIEMVL
endpointName: amyloid nucleation score
resultValue: inactive

substance: LIQPKSR
endpointName: amyloid nucleation score
resultValue: inactive

substance: FIQWQSESVYIAYSNFTSSM
endpointName: amyloid nucleation score
resultValue: inactive

substance: YESRGEGVMPSTQLWMSRLG
endpointName: amyloid nucleation score
resultValue: inactive

substance: RALLTGWTMSRPGLFIIATS
endpointName: amyloid nucleation score
resultValue: -0.273

substance: GDDIEILSFEVWRVFSKSWS
endpointName: amyloid nucleation score
resultValue: inactive

substance: WTGMPRTGWDGPRYKALSRS
endpointName: amyloid nucleation score
resultValue: inactive
